target: CXCR2 (Homo sapiens, UniProt P25025); construct: Human neutrophils were purified from freshly drawn human whole blood; endogenous in cells; experiment: Human neutrophil chemotaxis assay; settings: R = H; read-out: CXCR2 Neutrophil, GRO[…] Chemotaxis IC50
Sequence (P25025 whole entry): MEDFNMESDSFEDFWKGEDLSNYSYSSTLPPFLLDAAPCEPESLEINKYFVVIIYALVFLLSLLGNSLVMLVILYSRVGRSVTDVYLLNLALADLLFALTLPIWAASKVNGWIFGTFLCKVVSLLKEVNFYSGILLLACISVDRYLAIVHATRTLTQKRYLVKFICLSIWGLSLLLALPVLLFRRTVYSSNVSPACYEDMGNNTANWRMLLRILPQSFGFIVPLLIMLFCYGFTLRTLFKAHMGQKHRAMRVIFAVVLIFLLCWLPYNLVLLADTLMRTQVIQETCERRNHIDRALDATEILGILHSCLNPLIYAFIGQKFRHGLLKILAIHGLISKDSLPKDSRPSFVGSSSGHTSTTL
readout name: IC50 (nM)
Lab book: enter the figure in nM, no units written.

Please report the recorded IC50 for CN(C)C(=O)c1nccc(Nc2c(N[C@@H](c3ccn(C)n3)C3(C)CCCC3)c(=O)c2=O)c1O [drawing 157 (R = H)] .
42.1

The origin of these recorded values is patent US20250296920A1.
